The reported measurements were obtained from patent US12570704B2.

# Tested on: H1299 cells
# assay.method.text: MTT cell viability assay, 72 h, without RT
# Assay type: cell-based, human
# run.conditions: Homo sapiens, NCI-H1299
quantity.kind: IC50 (nM)
Reply numerically in nM, unit not repeated.

// sample COc1cc2cc(c1Cl)N(C)C(=O)C[C@@H](OC(=O)[C@H](C)N(C)C(=O)CCSN=O)[C@]1(C)OC1[C@H](C)[C@@H]1C[C@@](O)(NC(=O)O1)[C@H](OC)/C=C\C=C(/C)C2 (stereo partly shown) [DM1-NO] , its IC50 was 25.9
